Read-out: Vascular cell adhesion molecule 1 (VCAM1), VCAM1 (gene 7412)
EXPERIMENT: BSK_4H_VCAM1: BioMAP Diversity Plus: 4H Assay for Vascular cell adhesion molecule 1 (VCAM1) Biomarker Activity (AID 2283033)
TEST_CONDITIONS: primary human endothelial cells (HUVEC); actives raise or lower the signal
Activity calls are given as the source filed them. Rule for the calls: active = hit-call score of the fitted dose curve at least 0.9, where 1 is the maximum; inactive = score below 0.9.
Outcomes: class 1 = active, class 0 = inactive

| COMPOUND | ASSIGNED_CATEGORY |
| --- | --- |
| Cc1ccc([N+](=O)[O-])cc1N | class 0 |
| CCCC(C)C(=O)OCC (configuration not stated) | class 0 |
| COc1ccc(C(=O)c2ccccc2)c(O)c1 | class 1 |
| C=CC(=O)OCC(C)OCC(C)OCC(C)OC(=O)C=C (configuration not stated) | class 1 |
| O=C(Cl)c1c(Cl)c(Cl)c(C(=O)Cl)c(Cl)c1Cl | class 0 |
| C=CC(=O)OCCCCCCOC(=O)C=C | class 1 |
| CC(CCC(=O)O)(c1ccc(O)cc1)c1ccc(O)cc1 | class 0 |

Just for reference, PubChem BioAssay (EPA / NIEHS) is where these values come from.
